target: OATP1A2 (Homo sapiens, UniProt P46721); assay: OATP1A2 uptake assay (SR101) in overexpressing A431 cells; details: human, A431 cells overexpressing OATP1A2, pH 7.4, probe sulforhodamine 101 (0.5 μM)
Sequence (P46721 whole entry): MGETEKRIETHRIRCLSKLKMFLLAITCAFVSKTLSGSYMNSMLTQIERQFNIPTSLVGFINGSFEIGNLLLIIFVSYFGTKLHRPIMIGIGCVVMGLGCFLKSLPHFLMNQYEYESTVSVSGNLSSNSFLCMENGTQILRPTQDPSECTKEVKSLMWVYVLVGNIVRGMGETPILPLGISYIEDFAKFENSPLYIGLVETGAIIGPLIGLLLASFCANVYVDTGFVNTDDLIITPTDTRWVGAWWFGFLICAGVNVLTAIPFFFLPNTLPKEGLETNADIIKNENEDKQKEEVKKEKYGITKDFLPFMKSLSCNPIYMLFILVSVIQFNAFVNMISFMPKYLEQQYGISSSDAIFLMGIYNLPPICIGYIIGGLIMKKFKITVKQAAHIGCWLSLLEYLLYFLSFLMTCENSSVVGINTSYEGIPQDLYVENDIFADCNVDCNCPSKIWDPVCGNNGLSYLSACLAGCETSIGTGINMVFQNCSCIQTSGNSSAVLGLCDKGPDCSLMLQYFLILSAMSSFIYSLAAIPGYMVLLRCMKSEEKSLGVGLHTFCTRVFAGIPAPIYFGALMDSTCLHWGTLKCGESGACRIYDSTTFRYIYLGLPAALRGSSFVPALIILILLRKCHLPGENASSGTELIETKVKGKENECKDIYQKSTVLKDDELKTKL
PROPERTY_LABEL: inhibition at 10 min, 200 µM

[Q] So what's the measured inhibition at 10 min, 200 µM for this one? `CC(C)C(=O)OC[C@H]1O[C@@H](n2ccc(NO)nc2=O)[C@H](O)[C@@H]1O`
[A] 20 to 40%
